Measured values drawn from ChEMBL document CHEMBL1201862 for this set.

System: UACC-62
measurement_notes: NCI tumour cell line growth inhibition, 48 h
Calls of active or inactive are those of the source. Cut-off read from the data, not from the text of the source: active = GI50 up to about 1.1 µM and inactive = higher.
Form entry, call: pick from 1 (active), 0 (inactive)

# molecule, measured_on, qualitative_label
data = [
    ("O=C1NC(=S)NC(=O)C1C(c1ccccc1[N+](=O)[O-])C1C(=O)NC(=S)NC1=O.c1ccncc1", "UACC-62", 0),
]

// return assay outcome for C[C@H]1CCC/C=C/[C@@H]2C[C@H](OC3OC(CO)C(O)C(O)C3O)C[C@H]2[C@H](O)/C=C/C(=O)O1 (stereo not given in full) 0

Now try "CC1=NN2C(=N)/C(=C/c3ccc(F)cc3)C(=O)N=C2S1" . 0

Now try O=[N+]([O-])c1cccnc1NCC1(CO)CC(Cc2ccccc2)C1 (stereo not given) . 0

Now try "O=C(CCc1cc(-c2ccccc2)nc(S)n1)N(Cc1ccccc1)Cc1ccccc1" . 0

Now try COC(=O)C(CC(=O)Nc1ccc(Cl)c(Cl)c1)C(=O)C(=O)NC1C2CC3CC(C2)CC1C3 (stereo not given) . 0

Now try COc1cc2c(cc1O)CC1c3c(cc(O)c(OC)c3-2)CCN1C (stereo not given) . 0

Now try "O=[PH](O)c1ccccn1" . 0

Now try COc1ccc(C2C3C(=O)C=CC(=O)C3[C@@H]2C)cc1OC (stereo not given in full) . 0

Now try "Cn1c(-c2cccc([N+](=O)[O-])c2)[n+](C)c2ccccc21" . 0

Now try "C/C(NC(=O)c1ccccc1)=C(/C(=O)c1ccccc1)[C@@H]1OC(C)(C)O[C@@H]1[C@H]1COC(C)(C)O1" . 0

Now try "S=C(Cc1ccc2c(c1)Sc1ccccc1O2)N1CCOCC1" . 0

Now try "COc1c(Br)cc(Br)c(OC)c1-c1[nH]c(Br)c(Br)c1Br" . 0

Now try O=C1NC2(CCCCC2)C2CCCCC(O)C12 (stereo not given) . 0

Now try "CCOC(=O)c1csc(NC(=O)CCN2CCCCC2)n1" . 0

Now try O/N=C1/CCCCCC1NO (stereo not given) . 0

Now try "COc1ccc(C(=O)N2CCN(c3ccc4c(c3)OCC(=O)N4)CC2)cc1OC" . 0

Now try CCCCCCCCCCC(O)CCCCCCC(=O)O (stereo not given) . 0

Now try "C#CCN(Cc1ccc2nc(-c3ccccc3)c(Cl)nc2c1)c1cc(OC)c(OC)c(OC)c1" . 0

====

Test system: RXF 393
measurement_notes: NCI tumour cell line growth inhibition, 48 h
Activity calls are given as the source filed them. No stated cut-off is given here; in the data, active = GI50 up to about 1.1 µM and inactive = higher.
attribute_measured: GI50

Worked examples follow.
# compound, GI50
data = [
    ("CCN(CCO)C(=O)C1(c2ccccc2)CCCCC1", "> 10 µM (inactive)"),
    ("CC(=O)OCC(=O)[C@@]1(O)CC[C@H]2[C@@H]3C[C@H](C)C4=CC(=O)C=C[C@]4(C)[C@@]3(F)[C@@H](O)C[C@@]21C", "> 100 µM (inactive)"),
    ("COC(=O)C1(Cc2ccc3c(c2)CCC3)Cc2cc3c(cc2C1=O)CCC3 (stereo not given)", "29.4 µM (inactive)"),
    ("CCCCCCCCCCCCCCCCOP(=O)(O)OP(=O)(O)OCC1OC(n2ccc(N)nc2=O)CC1O (stereo not given)", "> 100 µM (inactive)"),
    ("Cc1ccc2nc3c(=O)[nH]c(=O)nc-3n(C)c2c1C", "> 100 µM (inactive)"),
]

I'm hoping you can list GI50 for every compound here, please.
1. CSC(=N)N1N=C2/C(=C/c3ccccc3)CCC[C@H]2[C@H]1c1ccccc1
2. COc1ccc2c(c1)CCCN1Cc3ccccc3CC21 (stereo not given)
3. O=C(O)c1oc(C(=O)O)c(C(=O)O)c1C(=O)O

1. 2.86 µM (inactive)
2. 48.3 µM (inactive)
3. > 100 µM (inactive)

I'm hoping you can list GI50 for every compound here, please.
1. COC(=O)[C@@H](NS(=O)(=O)CC12CCC(CC1)C2(C)C)C(C)(C)C
2. Cc1ccc(S(=O)(=O)N/N=C2\C=C[C@]3(CC2)C(=O)N(C)c2ccccc23)cc1

1: 44.4 µM (inactive); 2: > 100 µM (inactive)

====

Test system: Hs-578T
measurement_notes: NCI tumour cell line growth inhibition, 48 h
The source made the active and inactive calls. Rule as the data show it: active = GI50 up to about 1.1 µM and inactive = higher.
Form entry, call: pick from class 1 (active), class 0 (inactive)

Below are worked cases with known answers.
# compound, measured_on, qualitative_label
rows = [
    ("CCN(CC)Cc1ccc(C(=S)Nc2ccc(C)cc2)s1", "Hs-578T", "class 0"),
    ("NC(Cc1ccnnc1)C(=O)O (stereo unspecified)", "Hs-578T", "class 0"),
    ("CC1CC(=O)Nc2cc(Cl)ccc2N1C(=O)C1CC1 (stereo unspecified)", "Hs-578T", "class 0"),
]

// return assay outcome for "N#Cc1sc2c(c1OC(=O)c1ccc(Cl)cc1)c(=O)n(-c1ccccc1)c(=S)n2-c1ccccc1" class 0

Now try CCOC(=O)C(NC(=O)NCc1ccc(F)cc1)C(F)(F)F (stereo unspecified) . class 0

Now try "C=C[C@H]1CN2CCc3c([nH]c4c([C@@H]5CCCN5C)c(O)ccc34)[C@@H]2C[C@@H]1C[C@H]1c2[nH]c3ccccc3c2CCN1C" . class 0

Now try "CC[C@H]1C=CCC[C@@]2(C[C@@H]3CC[C@@H]4[C@H](C(=O)OCCCCCCCCCCCCCCCC(=O)N(CCCN)CCCCN)[C@]5(CCC[C@@H](C)O5)NC(=[N+]34)N2)O1" . class 1

====

Tested on: Malme-3M
measurement_notes: NCI tumour cell line growth inhibition, 48 h
Activity calls are given as the source filed them. Cut-off read from the data, not from the text of the source: active = GI50 up to about 1.1 µM and inactive = higher.
attribute_measured: GI50

# compound, GI50
rows = [
    ("C=C1CC(C)(COc2ccc3c(C)c(C)c(=O)oc3c2C)OC1=O (stereo not given)", "1.39 µM (inactive)"),
    ("COc1ccc(C2NC3=C(CCCC3)N2)cc1", "40.4 µM (inactive)"),
    ("CCOC(=O)C1S/C(=N\\c2ccccc2)N=C1C (stereo not given)", "> 100 µM (inactive)"),
]

I'm hoping you can list GI50 for every compound here, please.
1. CCN(CC)CCCNc1c2c(Cl)cc(Cl)cc2nc2nc(O)nc(C)c12
2. C=C1[C@@H](OC(C)=O)[C@H]2[C@@H](OC(C)=O)[C@@](C)(OC(C)=O)C[C@]2(OC(C)=O)C(=O)[C@@H](C)/C=C/C(C)(C)C(=O)C[C@H]1OC(C)=O

41.6 µM (inactive)
> 100 µM (inactive)

====

System: NCI-H460
measurement_notes: NCI tumour cell line growth inhibition, 48 h
Activity calls are given as the source filed them. Rule as the data show it: active = GI50 up to about 1.1 µM and inactive = higher.
attribute_measured: GI50

# compound, GI50
measured = [
    ("Cc1ccccc1N1C(=O)C2C=CC(n3[nH]c(=O)n(Cc4ccccc4)c3=O)CC2C1=O (stereo not given)", "> 100 µM (inactive)"),
    ("CCOC(=O)N/N=C(/N)c1cccc(Br)c1", "> 100 µM (inactive)"),
    ("CCOc1ccc(NC(=O)C(=O)CC(=O)c2c(C)[n+]([O-])c3ccccc3[n+]2[O-])cc1", "> 100 µM (inactive)"),
    ("Cc1ccc([N+](=O)[O-])c2c(NCCC[N+](C)(C)[O-])ccnc12", "21.3 µM (inactive)"),
    ("Cc1ccc(S(=O)(=O)N/N=C2\\C=C[C@]3(CC2)C(=O)N(C)c2ccccc23)cc1", "> 100 µM (inactive)"),
]

I'm hoping you can list GI50 for every compound here, please.
1. CCCCCCCCCCCCCCCCOP(=O)(O)OP(=O)(O)OCC1OC(n2ccc(N)nc2=O)CC1O (stereo not given)
2. CC(C)Oc1cccc(N2C(n3ccnc3)=Nc3ccncc3S2(=O)=O)c1

["> 100 µM (inactive)", "18.8 µM (inactive)"]

I'm hoping you can list GI50 for every compound here, please.
1. COc1ccc(OC)c(N2CC(N)C2=O)c1 (stereo not given)
2. CC1=NC(=Cc2cccc(Cl)c2)C(=O)N1n1c(-c2ccccc2)nc2ccccc2c1=O
3. CC(C)C(=O)/C=C/c1ccc(Br)cc1

["> 100 µM (inactive)", "19.3 µM (inactive)", "14.9 µM (inactive)"]

====

System: OVCAR-3
measurement_notes: NCI tumour cell line growth inhibition, 48 h
Calls of active or inactive are those of the source. Cut-off read from the data, not from the text of the source: active = GI50 up to about 1.1 µM and inactive = higher. Non-standard residues stand in square brackets, D forms with d. Residues, ends and D or L forms follow the SMILES beside them. *: point of attachment. Cbz = O=C(OCc1ccccc1)*; Boc = CC(C)(C)OC(=O)*; Aib = CC(C)(N)C(=O)O; OBn = c1ccc(CO*)cc1; OtBu = CC(C)(C)O*; βAla = NCCC(=O)O
Task for the reader: assign each of the following compounds its reported GI50.

Worked examples follow.
# compound, attribute_measured, reported_measurement
rows = [
    ("COC(=O)/C(=C/c1ccc(OC)cc1)C(C(=O)O)=C(C)C", "GI50", "> 100 µM (inactive)"),
    ("NC(C(=O)O)c1ccc(C(=O)O)cc1 (configuration not stated)", "GI50", "> 100 µM (inactive)"),
    ("CC(C)(C)OC(=O)CC(NC(=O)OC(C)(C)C)C(=O)NC(CCCCNC(=O)OCc1ccccc1)C(=O)NC(C)(C)C(=O)NCCC(=O)OCc1ccccc1 (configuration not stated) (Boc-D(OtBu)K(Cbz)[Aib][βAla]-OBn; configuration not given here)", "GI50", "> 100 µM (inactive)"),
    ("O=C(Nc1ccc2[nH]c(C(=O)N3CC(CCl)c4ccc([N+](=O)[O-])cc43)cc2c1)c1cc2ccccc2o1 (configuration not stated)", "GI50", "> 1100 µM (inactive)"),
    ("O=C(CC1=Nc2nnc(-c3nnc4n3C(=O)C(CC(=O)C3CC3)=N4)n2C1=O)C1CC1", "GI50", "> 100 µM (inactive)"),
]

I'm hoping you can list GI50 for every compound here, please.
1. CCCOC1OC(CS(=O)(=O)O)C(O)C(O)C1O (configuration not stated)
2. CN(Cc1cnc2nc(N)nc(N)c2n1)c1ccc(C(=O)N[C@@H](CCS(=O)(=O)O)C(=O)O)cc1
3. CCN1CCC(O)(/C=C/c2ccc(C)cc2C)C(C(=O)/C=C/c2ccc(C)cc2C)C1 (configuration not stated)
4. O=[N+]([O-])c1ccc2[nH]nc(OCc3ccccn3)c2c1
5. CC1CC(=O)Nc2cc(Cl)ccc2N1C(=O)C1CC1 (configuration not stated)
6. Cc1ccccc1N1C(=O)C2C=CC(n3[nH]c(=O)n(Cc4ccccc4)c3=O)CC2C1=O (configuration not stated)
7. Nc1nc(Cl)cc(NCCCCCCCCCCNc2cc(Cl)nc(N)n2)n1

["> 100 µM (inactive)", "> 49.5 µM (inactive)", "2.53 µM (inactive)", "61 µM (inactive)", "> 100 µM (inactive)", "> 100 µM (inactive)", "1.82 µM (inactive)"]
